Reference source for all entries: ChEMBL document CHEMBL5331093

tested target: Human immunodeficiency virus type 1 reverse transcriptase (Human immunodeficiency virus 1)
assay notes: Inhibition of wild type recombinant HIV-1 reverse transcriptase assessed as reduction of biotin-dUTP incorporation into […] using ABTS as substrate incubated for 1 hrs by ELISA analysis
recorded metric: pIC50
In plain terms, pIC50 is the concentration in mol/L turned into minus its base-10 logarithm.

Sample records with pIC50:
molecule	recorded metric	result number
Cc1cc(C#N)cc(C)c1Oc1nc(Nc2ccc(C#N)cc2)ncc1C#CC(=O)NC1CC1	pIC50	7.28
CCOC(=O)C#Cc1cnc(Nc2ccc(C#N)cc2)nc1Oc1c(C)cc(C#N)cc1C	pIC50	6.99
COC(=O)C1CCC(NC(=O)C#Cc2cnc(Nc3ccc(C#N)cc3)nc2Oc2c(C)cc(C#N)cc2C)CC1 (stereo not given)	pIC50	6.73
COCCNC(=O)C#Cc1cnc(Nc2ccc(C#N)cc2)nc1Oc1c(C)cc(C#N)cc1C	pIC50	7.72

Quick one: pIC50 of "Cc1cc(C#N)cc(C)c1Oc1nc(Nc2ccc(C#N)cc2)ncc1SCC(=O)NCCCN1CCOCC1" ? 6.95
